tested on: Mycobacterium marinum; test: Anti-biotic assay: M. marinum growth in broth (luminescence); assay type: cell-based; conditions: 72 h, read-out: median (normalised M. marinum growth, Mm in broth)
TEST_READOUT: activity at 33.3333 µM (%)
Answer with a number only, understood to be in %.

get_value(item= Oc1ccc(C=Cc2cc(O)cc3c2C(c2cc(O)cc(O)c2)C(c2ccc(O)c4c2OC(c2ccc(O)cc2O)C4c2cc(O)cc(O)c2)O3)cc1 (single isomer, unassigned; (-)) [Compound 11, (−)-Gnetuhainin M] , readout=activity at 33.3333 µM) returns 96.7

Entry `Oc1ccc(/C=C/c2cc(O)c3c(c2)O[C@H](c2ccc(O)cc2)[C@H]3c2cc(O)c3c(c2)O[C@H](c2ccc(O)cc2)[C@H]3c2cc(O)c3c(c2)O[C@H](c2ccc(O)cc2O)[C@H]3c2cc(O)cc(O)c2)cc1` — recorded activity at 33.3333 µM = 114

// activity at 33.3333 µM lookup, molecule = `Oc1ccc(/C=C/c2cc(O)c3c(c2)O[C@H](c2ccc(O)cc2)[C@H]3c2cc(O)c3c(c2)O[C@H](c2ccc(O)cc2)[C@H]3c2cc(O)c3c(c2)O[C@H](c2ccc(O)cc2)[C@H]3c2cc(O)cc(O)c2)cc1` , result: 120

Value of activity at 33.3333 µM reported for the molecule Oc1ccc(/C=C/c2cc(O)c3c(c2)O[C@@H](c2ccc(O)cc2O)[C@@H]3c2cc(O)cc(O)c2)cc1 (relative stereo) [Compound 1, (+)-Gnetin D] is 110

Oc1ccc(/C=C/c2cc(O)c3c(c2)O[C@@H](c2ccc(O)cc2)[C@@H]3c2cc(O)c3c(c2)O[C@H](c2ccc(O)cc2)[C@H]3c2cc(O)cc(O)c2)cc1 [Compound 6, (−)-Gnetin E] has a reported activity at 33.3333 µM of 119
